target: human TRPA1 (Homo sapiens, UniProt O75762)
Construct: expressed in transfected cells; host or cells: CHO cells (G-418 selection)
Sequence (O75762 whole entry): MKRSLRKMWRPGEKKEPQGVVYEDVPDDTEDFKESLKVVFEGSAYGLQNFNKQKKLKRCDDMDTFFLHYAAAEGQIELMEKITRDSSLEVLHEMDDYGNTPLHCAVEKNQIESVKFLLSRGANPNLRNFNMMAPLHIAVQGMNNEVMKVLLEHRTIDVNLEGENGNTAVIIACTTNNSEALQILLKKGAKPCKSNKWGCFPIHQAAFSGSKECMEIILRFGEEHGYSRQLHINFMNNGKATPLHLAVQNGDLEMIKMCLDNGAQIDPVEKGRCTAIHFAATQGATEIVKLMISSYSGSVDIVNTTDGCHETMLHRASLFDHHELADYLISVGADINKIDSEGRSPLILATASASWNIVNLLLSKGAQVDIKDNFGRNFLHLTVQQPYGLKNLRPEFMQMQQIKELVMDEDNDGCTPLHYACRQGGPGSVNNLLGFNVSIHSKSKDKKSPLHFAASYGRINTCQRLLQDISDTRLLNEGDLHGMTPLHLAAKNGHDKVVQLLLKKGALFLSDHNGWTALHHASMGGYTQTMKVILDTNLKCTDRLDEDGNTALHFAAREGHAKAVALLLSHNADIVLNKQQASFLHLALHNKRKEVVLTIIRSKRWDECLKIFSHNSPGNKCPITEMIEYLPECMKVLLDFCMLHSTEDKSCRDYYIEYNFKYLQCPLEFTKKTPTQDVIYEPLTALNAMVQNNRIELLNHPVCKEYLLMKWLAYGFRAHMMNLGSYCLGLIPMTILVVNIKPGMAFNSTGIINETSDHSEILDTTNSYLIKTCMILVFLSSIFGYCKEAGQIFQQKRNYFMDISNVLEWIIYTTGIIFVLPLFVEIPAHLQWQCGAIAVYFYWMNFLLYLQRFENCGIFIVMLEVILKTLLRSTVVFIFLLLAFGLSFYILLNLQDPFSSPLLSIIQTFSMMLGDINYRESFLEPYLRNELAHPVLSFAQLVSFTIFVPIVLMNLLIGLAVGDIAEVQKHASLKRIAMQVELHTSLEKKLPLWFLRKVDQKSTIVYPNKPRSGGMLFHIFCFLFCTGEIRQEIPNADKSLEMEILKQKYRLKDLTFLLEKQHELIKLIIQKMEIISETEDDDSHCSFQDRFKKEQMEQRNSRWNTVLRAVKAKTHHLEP
measurementNotes: 45Calcium uptake assay, inhibition of AITC induced calcium uptake in human TRPA1 expressing CHO cells
Assay type: cell-based
condition: 10.0 μM compound, AITC 30 μM, read-out: human TRPA1 Percentage inhibition at 10.0 μM

molecule	inhibition at 10 µM [%]
Cn1c(=O)c2c(CC(=O)Nc3nc(-c4ccc(C(F)(F)F)c(F)c4)cs3)nsc2n(C)c1=O [Example 19]	100
Cn1c(=O)c2c(CC(=O)Nc3nc(-c4ccc(OC(F)(F)F)c(F)c4)cs3)nsc2n(C)c1=O [Example 25]	100
Cn1c(=O)c2c(CC(=O)Nc3nc(-c4cc(F)c(C(F)(F)F)c(F)c4)cs3)snc2n(C)c1=O [Example 10]	100
Cn1c(=O)c2c(CC(=O)Nc3nc(-c4cc(Cl)cc(C(F)(F)F)c4)cs3)nsc2n(C)c1=O [Example 32]	99.4
Cn1c(=O)c2c(CC(=O)Nc3nc(-c4ccc(F)cc4F)cs3)nsc2n(C)c1=O [Example 28]	99.6
Cn1c(=O)c2c(CC(=O)Nc3nc(-c4cccc(C(F)(F)F)c4)cs3)snc2n(C)c1=O [Example 1]	100
Cn1c(=O)c2c(CC(=O)Nc3nc(-c4cccc(C(F)(F)F)c4)cs3)nsc2n(C)c1=O [Example 13]	99.8
Cn1c(=O)c2c(CC(=O)Nc3nc(-c4ccc(Cl)c(OC(F)(F)F)c4)cs3)nsc2n(C)c1=O [Example 31]	99.2
Cn1c(=O)c2c(CC(=O)Nc3nc(-c4ccc(F)c(C(F)(F)F)c4)cs3)nsc2n(C)c1=O [Example 20]	99.8
Cn1c(=O)c2c(CC(=O)Nc3nc(-c4ccc(Cl)c(Cl)c4)cs3)nsc2n(C)c1=O [Example 26]	99.5
Cn1c(=O)c2c(CC(=O)Nc3nc(-c4ccc(C(F)(F)F)c(F)c4F)cs3)nsc2n(C)c1=O [Example 39]	99.9
